Target: human GLP-1 receptor (hGLP1R) (human, UniProt P43220 24-463)
Assay: cell-based or functional assay
Numbered stars: 1 amine (or outer) side, 2 acyl side, 3 side chain; on linkers, the order of the positions; unused ones are H or OH. Square brackets hold non-standard residues; d marks the D form. Side chains are listed from the residue outwards. Ends that are not written are not given here. * marks the point of attachment. C20 diacid = O=C(O)CCCCCCCCCCCCCCCCCCC(=O)*; γGlu = O=C(O)[C@H](CCC(=O)[*:2])N[*:1]; AEEA = NCCOCCOCC(=O)O; Aib = CC(C)(N)C(=O)O
assay.endpoint: pEC50 hGLPR1

>>> result("H[Aib]EGTFTSDVSRLK([AEEA-AEEA-γGlu-C20 diacid])E[Aib]AA[Aib]QRFLEHLV-NH2 [SEQ ID NO: 64]")
"10.2 -log M"
>>> result("H[Aib]EGTFTSDVSYLK([AEEA-AEEA-γGlu-C20 diacid])ETAATQRFLEHLV-NH2 [SEQ ID NO: 4]")
"11.1 -log M"
>>> result("H[Aib]EGTFTSDVSYLKEEA[Aib]LQRFLEYLV-NH2 (not fully specified (residue 14); also: K14 lipidated with C20DA[γE][OEG][OEG]- or C18DA[γE][OEG][OEG]-) [SEQ ID NO: 144]")
"10.8 -log M"
>>> result("H[Aib]EGTFTSDVSVLK([AEEA-AEEA-γGlu-C20 diacid])EEAATQRFLEHLV-NH2 [SEQ ID NO: 53]")
"11.3 -log M"
>>> result("H[Aib]EGTFTSDVSYLKEEA[Aib]LQRYLEHLV-NH2 (not fully specified (residue 14); also: K14 lipidated with C20DA[γE][OEG][OEG]- or C18DA[γE][OEG][OEG]-) [SEQ ID NO: 141]")
"11.4 -log M"
>>> result("H[Aib]IGTFTSDVSYLK([AEEA-AEEA-γGlu-C20 diacid])EEA[Aib]LQRFLEHLV-NH2 [SEQ ID NO: 175]")
"10.5 -log M"
>>> result("H[Aib]EGTFTSDVSFLKE[Aib]AATQRFLEHLV-NH2 (not fully specified (residue 14)) [SEQ ID NO: 13]")
"10.5 -log M"
>>> result("H[Aib]YGTFTSDVSYLKEEA[Aib]LQRFLEHLV-NH2 (not fully specified (residue 14)) [SEQ ID NO: 159]")
"9.1 -log M"
>>> result("H[Aib]EGTFTSDVSRLK([AEEA-AEEA-γGlu-C20 diacid])ETAATQRFLEHLV-NH2 [SEQ ID NO: 26]")
"10.9 -log M"
